Target: Androgen Receptor (AR) protein (Homo sapiens, UniProt P10275, T878A)
Construct: endogenous in cells; host or cells: LNCaP
Sequence (P10275 whole entry T878A): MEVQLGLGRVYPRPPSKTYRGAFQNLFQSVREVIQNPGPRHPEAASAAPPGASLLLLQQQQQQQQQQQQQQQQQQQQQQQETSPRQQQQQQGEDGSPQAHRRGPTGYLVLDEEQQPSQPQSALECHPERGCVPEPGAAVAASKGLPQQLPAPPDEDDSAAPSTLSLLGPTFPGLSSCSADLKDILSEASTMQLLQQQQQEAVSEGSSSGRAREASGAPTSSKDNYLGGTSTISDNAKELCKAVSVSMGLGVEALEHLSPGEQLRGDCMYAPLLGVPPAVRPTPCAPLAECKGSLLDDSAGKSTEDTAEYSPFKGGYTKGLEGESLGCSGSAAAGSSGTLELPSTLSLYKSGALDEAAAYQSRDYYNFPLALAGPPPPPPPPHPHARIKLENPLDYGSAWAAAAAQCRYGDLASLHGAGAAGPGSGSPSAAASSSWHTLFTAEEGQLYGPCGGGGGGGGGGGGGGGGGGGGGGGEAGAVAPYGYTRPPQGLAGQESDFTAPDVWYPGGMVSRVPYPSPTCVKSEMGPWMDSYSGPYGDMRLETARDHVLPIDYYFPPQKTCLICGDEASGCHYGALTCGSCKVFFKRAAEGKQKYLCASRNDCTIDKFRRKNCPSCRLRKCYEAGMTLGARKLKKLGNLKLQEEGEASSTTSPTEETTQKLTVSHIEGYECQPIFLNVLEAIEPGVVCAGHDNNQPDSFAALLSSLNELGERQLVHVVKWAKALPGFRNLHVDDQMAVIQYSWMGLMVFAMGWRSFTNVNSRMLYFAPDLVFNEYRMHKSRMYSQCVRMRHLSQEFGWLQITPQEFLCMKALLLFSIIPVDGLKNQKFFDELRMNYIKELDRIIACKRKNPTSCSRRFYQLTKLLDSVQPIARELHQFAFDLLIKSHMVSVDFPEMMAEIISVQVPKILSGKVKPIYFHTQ
Sequence (Q96SW2 whole entry partner): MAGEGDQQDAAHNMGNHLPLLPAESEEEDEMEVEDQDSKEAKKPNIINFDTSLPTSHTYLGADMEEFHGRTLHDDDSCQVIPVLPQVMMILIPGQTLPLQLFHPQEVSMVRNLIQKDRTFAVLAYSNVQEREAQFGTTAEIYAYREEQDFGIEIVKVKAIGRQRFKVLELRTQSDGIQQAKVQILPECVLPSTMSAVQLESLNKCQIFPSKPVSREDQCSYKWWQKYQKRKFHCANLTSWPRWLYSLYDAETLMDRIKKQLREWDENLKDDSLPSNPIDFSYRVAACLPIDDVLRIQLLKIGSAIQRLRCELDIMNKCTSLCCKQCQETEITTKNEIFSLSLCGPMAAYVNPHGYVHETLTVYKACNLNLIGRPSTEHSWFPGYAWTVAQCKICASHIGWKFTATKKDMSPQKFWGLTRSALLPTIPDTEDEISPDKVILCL
Test: Androgen Receptor (AR) protein degradation assay in LNCaP cells, western blotting
Assay type: cell-based
Conditions: 20 h, 0.1 μM compound
Protocol: Experimental Example 1: Androgen Receptor (AR) Protein Degradation Assay After treating LNCaP cells with the synthesized Example compound, the amount of AR protein present in the cells was measured. The amount of AR protein was measured using western blotting detection method. […] [Protein quantification] […] Then, absorbance was measured at a wavelength of 562 nm. The unknown protein concentration was measured using a BSA standard curve (0, 0.125, 0.25, 0.5, 1, 2 mg/ml). […]
measuredMetric: inhibition at 0.1 µM (%)
Expressed in %, but write only the number.

Ask: // fetch inhibition at 0.1 µM for N#Cc1ncc(N2CCC(F)(C(=O)Nc3ccc(N4CCC(CN5CCN(C6CCN(c7ccc8c(c7)C(=O)N(C7CCC(=O)NC7=O)C8=O)CC6)CC5)CC4)cn3)CC2)cc1C(F)(F)F (centres unmarked) ; system: Androgen Receptor (AR) protein (Homo sapiens, UniProt P10275, T878A)
Result: 66

Ask: // fetch inhibition at 0.1 µM for N#Cc1ccc(N2CCC(C(=O)Nc3ccc(N4CCC(OCCN5CCN(c6cccc7c6C(=O)N(C6CCC(=O)NC6=O)C7=O)CC5)CC4)cn3)CC2)cc1C(F)(F)F (centres unmarked) ; system: Androgen Receptor (AR) protein (Homo sapiens, UniProt P10275, T878A)
Result: 28

Ask: // fetch inhibition at 0.1 µM for N#Cc1ccc(N2CCC(F)(C(=O)Nc3ccc(N4CCC(CCN5CCN(c6ccc7c(c6)C(=O)N(C6CCC(=O)NC6=O)C7=O)CC5)CC4)cn3)CC2)cc1C(F)(F)F (centres unmarked) ; system: Androgen Receptor (AR) protein (Homo sapiens, UniProt P10275, T878A)
Result: 87

Ask: // fetch inhibition at 0.1 µM for N#Cc1ccc(N2CCC(F)(C(=O)Nc3ccc(N4CCC(CN5CCN(CC6CCN(c7ccc8c(c7)C(=O)N(C7CCC(=O)NC7=O)C8=O)CC6)CC5)CC4)cn3)CC2)cc1C(F)(F)F (centres unmarked) ; system: Androgen Receptor (AR) protein (Homo sapiens, UniProt P10275, T878A)
Result: 87

Ask: // fetch inhibition at 0.1 µM for C[C@@H]1CN(CC2CCN(c3ccc(NC(=O)C4CCN(c5ccc(C#N)c(C(F)(F)F)c5)CC4)nc3)CC2)CCN1CC1CCN(c2ccc3c(n2)CN(C2CCC(=O)NC2=O)C3=O)CC1 (some centres unmarked) ; system: Androgen Receptor (AR) protein (Homo sapiens, UniProt P10275, T878A)
Result: 95

Ask: // fetch inhibition at 0.1 µM for N#Cc1ccc(N2CCC(C(=O)Nc3ccc(C#CC4CCN(CC5CCN(c6ccc7c(c6)C(=O)N(C6CCC(=O)NC6=O)C7=O)CC5)CC4)cn3)CC2)cc1C(F)(F)F (centres unmarked) ; system: Androgen Receptor (AR) protein (Homo sapiens, UniProt P10275, T878A)
Result: 66

Ask: // fetch inhibition at 0.1 µM for N#Cc1ccc(N2CCC(C(=O)Nc3ccc(N4CCC(CCN5CCN(C6CN(c7ccc8c(n7)CN(C7CCC(=O)NC7=O)C8=O)C6)CC5)CC4)cn3)CC2)cc1C(F)(F)F (centres unmarked) ; system: Androgen Receptor (AR) protein (Homo sapiens, UniProt P10275, T878A)
Result: 84

Ask: // fetch inhibition at 0.1 µM for C[C@@H]1CN(CC2CCN(c3ccc4c(n3)CN(C3CCC(=O)NC3=O)C4=O)CC2)CCN1CC1CCN(c2ccc(NC(=O)C3CCN(c4ccc(C#N)c(C(F)(F)F)c4)CC3)nc2)CC1 (some centres unmarked) ; system: Androgen Receptor (AR) protein (Homo sapiens, UniProt P10275, T878A)
Result: 98

Ask: // fetch inhibition at 0.1 µM for N#Cc1ccc(N2CCC(C(=O)Nc3ccc(N4CCC(CN5CCN(Cc6ccc7c(c6)C(=O)N(C6CCC(=O)NC6=O)C7=O)CC5)CC4)cn3)CC2)cc1C(F)(F)F (centres unmarked) ; system: Androgen Receptor (AR) protein (Homo sapiens, UniProt P10275, T878A)
Result: 86

Ask: // fetch inhibition at 0.1 µM for N#Cc1ccc(N2CCC(C(=O)Nc3ccc(OCCC4CCN(CC5CCN(c6ccc7c(c6)C(=O)N(C6CCC(=O)NC6=O)C7=O)CC5)CC4)cn3)CC2)cc1C(F)(F)F (centres unmarked) ; system: Androgen Receptor (AR) protein (Homo sapiens, UniProt P10275, T878A)
Result: 95

Ask: // fetch inhibition at 0.1 µM for CC1(CN2CCC(Oc3ccc(NC(=O)C4CCN(c5ccc(C#N)c(C(F)(F)F)c5)CC4)nc3)CC2)CN(c2ccc3c(c2)C(=O)N(C2CCC(=O)NC2=O)C3=O)C1 (centres unmarked) ; system: Androgen Receptor (AR) protein (Homo sapiens, UniProt P10275, T878A)
Result: 91

Ask: // fetch inhibition at 0.1 µM for N#Cc1ccc(N2CCC(C(=O)Nc3ccc(N4CCC(CN5CC(N6CCN(c7ccc8c(n7)CN(C7CCC(=O)NC7=O)C8=O)CC6)C5)CC4)cn3)CC2)cc1C(F)(F)F (centres unmarked) ; system: Androgen Receptor (AR) protein (Homo sapiens, UniProt P10275, T878A)
Result: 88

Ask: // fetch inhibition at 0.1 µM for N#Cc1ccc(N2CCC(C(=O)Nc3ccc(OCC4CCN(CC5CCN(c6ccc7c(c6)C(=O)N(C6CCC(=O)NC6=O)C7=O)CC5)CC4)cn3)CC2)cc1C(F)(F)F (centres unmarked) ; system: Androgen Receptor (AR) protein (Homo sapiens, UniProt P10275, T878A)
Result: 91

Ask: // fetch inhibition at 0.1 µM for N#Cc1ccc(N2CCC(C(=O)Nc3ccc(N4CCN(CC5CCN(C(=O)CNc6ccc7c(c6)C(=O)N(C6CCC(=O)NC6=O)C7=O)CC5)CC4)cn3)CC2)cc1C(F)(F)F (centres unmarked) ; system: Androgen Receptor (AR) protein (Homo sapiens, UniProt P10275, T878A)
Result: 95

Ask: // fetch inhibition at 0.1 µM for C[C@@H]1CN(CC2CN(c3ccc4c(c3)C(=O)N(C3CCC(=O)NC3=O)C4=O)C2)CCN1CC1CCN(c2ccc(NC(=O)C3CCN(c4ccc(C#N)c(C(F)(F)F)c4)CC3)nc2)CC1 (some centres unmarked) ; system: Androgen Receptor (AR) protein (Homo sapiens, UniProt P10275, T878A)
Result: 96

Ask: // fetch inhibition at 0.1 µM for N#Cc1ccc(N2CCC(C(=O)Nc3ccc(N4CCC5(CC4)CN(C(=O)C4CCN(c6ccc7c(c6)C(=O)N(C6CCC(=O)NC6=O)C7=O)CC4)C5)cn3)CC2)cc1C(F)(F)F (centres unmarked) ; system: Androgen Receptor (AR) protein (Homo sapiens, UniProt P10275, T878A)
Result: 42

Ask: // fetch inhibition at 0.1 µM for N#Cc1ccc(N2CCC(C(=O)Nc3ccc(OC4CCN(CC5CCN(c6ccc7c(c6)C(=O)N(C6CCC(=O)NC6=O)C7=O)CC5)CC4)cn3)CC2)cc1C(F)(F)F (centres unmarked) ; system: Androgen Receptor (AR) protein (Homo sapiens, UniProt P10275, T878A)
Result: 99

Ask: // fetch inhibition at 0.1 µM for N#Cc1ccc(N2CCC(C(=O)Nc3ccc(N4CCC(CN5CCN(C6CCN(c7ccc8c(n7)CN(C7CCC(=O)NC7=O)C8=O)CC6)CC5)CC4)cn3)CC2)cc1C(F)(F)F (centres unmarked) ; system: Androgen Receptor (AR) protein (Homo sapiens, UniProt P10275, T878A)
Result: 97

Ask: // fetch inhibition at 0.1 µM for N#Cc1ccc(N2CCC(C(=O)Nc3ccc(N4CCC(CN5CCN(C6CCN(c7ccc8c(c7)C(=O)N(C7CCC(=O)NC7=O)C8=O)CC6)CC5)CC4)cn3)CC2)cc1C(F)(F)F (centres unmarked) ; system: Androgen Receptor (AR) protein (Homo sapiens, UniProt P10275, T878A)
Result: 99

Ask: // fetch inhibition at 0.1 µM for N#Cc1ccc(N2CCC(C(=O)Nc3ccc(N4CCC(CCN5CCC6(CC5)CN(c5ccc7c(n5)CN(C5CCC(=O)NC5=O)C7=O)C6)CC4)cn3)CC2)cc1C(F)(F)F (centres unmarked) ; system: Androgen Receptor (AR) protein (Homo sapiens, UniProt P10275, T878A)
Result: 93

###

biological target: Androgen Receptor (AR) protein (Homo sapiens, UniProt P10275, T878A); construct: endogenous in cells; host or cells: LNCaP; assay: Androgen Receptor (AR) protein degradation assay in LNCaP cells, western blotting; assay type: cell-based; conditions: 20 h, 1 μM compound
measuredMetric: inhibition at 1 µM (%)
Expressed in %, but write only the number.

Ask: Report inhibition at 1 µM, nothing else, for this compound: N#Cc1ccc(N2CCC(C(=O)Nc3ccc(N4CCC(CN5CCN(CC6CN(c7cc8c(cc7F)C(=O)N(C7CCC(=O)NC7=O)C8=O)C6)CC5)CC4)cn3)CC2)cc1C(F)(F)F (stereo not shown)
Result: 97

Ask: Report inhibition at 1 µM, nothing else, for this compound: N#Cc1ccc(N2CCC(C(=O)Nc3ccc(N4CCC(CN5CCC6(CC5)CN(c5ccc7c(c5)C(=O)N(C5CCC(=O)NC5=O)C7=O)C6)CC4)cn3)CC2)cc1C(F)(F)F (stereo not shown)
Result: 98.5

Ask: Report inhibition at 1 µM, nothing else, for this compound: N#Cc1ccc(N2CCC(C(=O)Nc3ccc(N4CC(CN5CCC(COc6ccc7c(c6)C(=O)N(C6CCC(=O)NC6=O)C7=O)CC5)C4)cn3)CC2)cc1C(F)(F)F (stereo not shown)
Result: 97

Ask: Report inhibition at 1 µM, nothing else, for this compound: N#Cc1ccc(N2CCC(C(=O)Nc3ccc(N4CCN(CCC5CCN(c6ccc7c(c6)C(=O)N(C6CCC(=O)NC6=O)C7=O)CC5)CC4)cn3)CC2)cc1C(F)(F)F (stereo not shown)
Result: 26

Ask: Report inhibition at 1 µM, nothing else, for this compound: CC1(CN2CCN(CC3CCN(c4ccc5c(c4)C(=O)N(C4CCC(=O)NC4=O)C5=O)CC3)CC2)CN(c2ccc(NC(=O)C3CCN(c4ccc(C#N)c(C(F)(F)F)c4)CC3)nc2)C1 (stereo not shown)
Result: 97

Ask: Report inhibition at 1 µM, nothing else, for this compound: N#Cc1ccc(N2CCC(C(=O)Nc3ccc(N4CCC(CN5CC[C@@H](CN6CCN(c7ccc8c(c7)C(=O)N(C7CCC(=O)NC7=O)C8=O)CC6)C5)CC4)cn3)CC2)cc1C(F)(F)F (stereo partly shown)
Result: 96

Ask: Report inhibition at 1 µM, nothing else, for this compound: N#Cc1ccc(N2CCC(C(=O)Nc3ccc(N4CCC(CN5CCN(CC6CCN(c7ccc8c(c7)C(=O)N(C7CCC(=O)NC7=O)C8=O)CC6)CC5)CC4)cn3)CC2)cc1Cl (stereo not shown)
Result: 99

Ask: Report inhibition at 1 µM, nothing else, for this compound: N#Cc1ccc(N2CCC(C(=O)Nc3ccc(CC4CCN(CC5CCN(c6ccc7c(c6)C(=O)N(C6CCC(=O)NC6=O)C7=O)CC5)CC4)cn3)CC2)cc1C(F)(F)F (stereo not shown)
Result: 97

Ask: Report inhibition at 1 µM, nothing else, for this compound: N#Cc1ccc(N2CCC(C(=O)Nc3ccc(N4CC(CN5CCN(C[C@H]6CCN(c7ccc8c(c7)C(=O)N(C7CCC(=O)NC7=O)C8=O)C6)CC5)C4)cn3)CC2)cc1C(F)(F)F (stereo partly shown)
Result: 95

Ask: Report inhibition at 1 µM, nothing else, for this compound: N#Cc1ccc(N2CCC(C(=O)Nc3ccc(N4CCC(CN5CC6(C5)CN(c5ccc7c(c5)C(=O)N(C5CCC(=O)NC5=O)C7=O)C6)CC4)cn3)CC2)cc1C(F)(F)F (stereo not shown)
Result: 97
